compounds and their reported TGI
Test system: MCF7 breast
Test: NCI tumour cell line growth inhibition, 48 h

structureSmiles | experimentalResult
Cc1cccc(Nc2cn(CCOc3ccccc3)c(=O)[nH]c2=O)c1 | > 100 µM
Brc1ccc(-c2ccc(-c3ccc(Br)s3)s2)s1 | > 100 µM
Cn1c(=O)c(Cc2ccc(F)cc2F)cc2cnc(NC3CCOCC3)nc21 | > 25 µM
Cc1ccc(/C=C(\C#N)n2nnc3cc(F)c(F)cc32)cc1 | > 100 µM

// switching to the query compound
The measured TGI associated with `Cc1ccc(/C=C2\CCOC2=O)cc1` reads > 100 µM

----------
System: SW-620 colon
Experiment: NCI tumour cell line growth inhibition, 48 h
List of TGI values.

compound | assayedTarget | TGI
Cc1ccc(S(=O)(=O)OC2CN3CCC2CC3)cc1 (stereo not drawn) | SW-620 colon | > 100 µM
Cc1c(Cl)cccc1NC(=O)C(=O)C1C(=O)NC(=O)NC1=O | SW-620 colon | > 100 µM

Field: next compound
Lookup result for `CCOC(=O)Cc1csc(/N=C\c2c(O)c3ccccc3oc2=O)n1` ; measured TGI: > 100 µM

----------
System: RPMI-8226 leukemia
Test: NCI tumour cell line growth inhibition, 48 h
Measured TGI of individual entries

Consider the following illustrative entries.
compound | experimentalResult
N#CC(C#N)=C1NC(=O)C(c2ccccc2)C(=O)N1 (stereo unspecified) | > 100 µM
C(=N\NC1=NCCCN1)/c1ccc(-c2cn3cc(/C=N/NC4=NCCCN4)ccc3n2)cc1 | > 88.6 µM

In plain terms, `Cc1cc2nc3c(C#N)c(-c4ccccc4)/c(=C\Nc4cccc(C(F)(F)F)c4)c(=O)n3c2cc1C` has a documented TGI of > 100 µM

TGI reported for this compound `O=C(O)CCCN1CCCCC1` : > 100 µM

Lookup result for COC(=O)C1Cc2c([nH]c3ccccc23)C=N1 (stereo unspecified) ; measured TGI: > 100 µM

Entry `N#Cc1c2ccccc2c2nnc3cc(Cl)c(Cl)cc3n12` , TGI reported as > 100 µM

TGI recorded for this compound, `Cc1cc(Cl)ccc1N1C(=O)C(=O)C(c2nc3ccccc3s2)C(=O)C1=O` , is > 100 µM

TGI in this record for O=C(CC1C(=O)Nc2ccccc2S1=O)Nc1cccc(Cl)c1 (stereo unspecified) : > 31 µM

Query `O=C(/C=C/c1ccccc1F)C(c1ccccc1)c1ccccc1` yields TGI of > 100 µM

For reference, reported TGI for `COC(=O)c1c(-c2ccccc2)csc1NC(=O)c1c(-c2ccccc2)noc1C` stands at > 100 µM

// recorded TGI for `Cn1c(=O)c(F)c(Nc2ccc(I)cc2F)c2c(=O)n(C[C@@H](O)CO)cnc21` : > 91.8 µM

Input CC(=O)O[C@H]1C(=O)[C@]2(C)[C@@H](OC(=O)OCC(O)CO)C[C@H]3OC[C@@]3(OC(C)=O)[C@H]2[C@H](OC(=O)c2ccccc2)[C@]2(O)C[C@H](OC(=O)[C@H](O)[C@@H](NC(=O)c3ccccc3)c3ccccc3)C(C)=C1C2(C)C (stereo partly specified) . Output TGI: < 0.01 µM

Memo: Cc1ccc(S(=O)(=O)N2CCCCC2CCO)cc1 (stereo unspecified) , reported TGI: > 100 µM

Form: compound = `CCOC(=O)C(=Cc1ccccc1Br)C(=O)OCC` ; TGI = > 100 µM

// field: TGI; key: `O=C1NC(=NCCc2ccccc2Cl)S/C1=C\c1ccc2ncccc2c1` ; value = > 25 µM

Reported TGI ( `Cc1cccc(Nc2cn(CCOc3ccccc3)c(=O)[nH]c2=O)c1` ) = > 100 µM

----------
Test system: CCRF-CEM leukemia
Assay: NCI tumour cell line growth inhibition, 48 h
Measured TGI by item

Some solved entries appear below for comparison.
molecule | TGI
COc1cc(/C=C\c2ccc(SC)cc2)cc(OC)c1OC | > 47.1 µM
CC(C)(C)c1ccccc1NS(=O)(=O)c1ccccc1 | > 100 µM

Notebook: `Cn1cccc1-c1cc(-c2ccc(Br)cc2)nc(N)c1C#N` , TGI read as > 100 µM

Lab note: measured TGI of `CC(=O)OCCOCNC(=S)N/N=C(\C)c1ccco1` was > 100 µM

----------
Test system: HOP-92 NSCLC
Assay: NCI tumour cell line growth inhibition, 48 h; in the data active = GI50 below about 0.43 µM; inactive = the rest
Could you please pick one outcome from this set? active, inactive

**Q:** Name the outcome recorded for `O=C1NC(=NCc2ccccn2)S/C1=C\c1ccc2ncccc2c1` in the assay.
**A:** inactive

**Q:** Identify the outcome logged in this assay for the compound shown: `C=C1C(=O)O[C@H]2[C@H]1CC/C(COC(=O)CCC(=O)OC/C1=C/CC[C@@]3(C)O[C@H]3[C@H]3OC(=O)C(=C)[C@@H]3CC1)=C\CC[C@@]1(C)O[C@@H]21`
**A:** inactive

**Q:** What did this assay record as the result for `COc1ccccc1Nc1nc(-c2cc3cccc(C(F)(F)F)c3oc2=O)cs1` ?
**A:** active

**Q:** Dear colleague, could you share the recorded outcome for Cc1ccccc1NC(=O)NC(CC(N)=O)c1ccc2c(c1)nc(-c1cccc(Oc3ccc(C(C)(C)C)cc3)c1)n2CCCN1CCCCC1C (centres undefined) when you have a moment?
**A:** inactive

----------
Test system: HCT-116 colon
Assay: NCI tumour cell line growth inhibition, 48 h
Recorded measurements of TGI, one per entry

compound | assayedTarget | experimentalResult
COC(=O)C1Cc2c([nH]c3ccccc23)-c2[nH]c3ccccc3c2CC(NC(C)=O)C(=O)NCC(=O)N1 (stereo not drawn) | HCT-116 colon | > 100 µM
Cc1cccc(C)c1NC(=O)C(=O)C1C(=O)N(c2ccccc2)N=C1N (stereo not drawn) | HCT-116 colon | > 100 µM

Lab note: `O=C(/C=C1\N=C(c2ccccc2)N(c2ccc3c(c2)Sc2cc(N4C(=O)/C(=C/C(=O)/C=C/c5ccccc5)N=C4c4ccccc4)ccc2N3)C1=O)/C=C/c1ccccc1` gave TGI of > 100 µM

----------
Entries and their GI50
Tested on: RXF 393 renal
Experiment: NCI tumour cell line growth inhibition, 48 h

Example results:
structureSmiles | GI50
Cc1ccc(Cl)cc1Nc1nc(C(F)(F)F)ccc1C(=O)Oc1ccc(Cl)cc1 | 3.97 µM
Cc1ccc(/C=C(\C#N)n2nnc3cc(F)c(F)cc32)cc1 | 3.28 µM
CN(C)CCn1cc(-c2ccc3c(Nc4ccc(CC(=O)Nc5cccc(F)c5)cc4)ncnc3c2)cn1 | 1.35 µM

Noted for `Cn1c(=O)c(Cc2ccc(F)cc2F)cc2cnc(NC3CCOCC3)nc21` : its GI50 reads 18.5 µM

----------
The compounds listed here are annotated with their TGI.
Tested on: OVCAR-3 ovarian
Experiment: NCI tumour cell line growth inhibition, 48 h

compound | experimentalResult
CCP(=O)(CC)C(Cl)(Cl)C(=O)NC | > 100 µM
CC(C)(C)c1cc(C2COC(=O)COCCOCC(=O)OCCOCCO2)cc(C(C)(C)C)c1O (stereo not drawn) | > 100 µM

In the following, a different compound is considered.
In plain terms, `O=c1c2ccccc2nc(-c2ccc(Cl)cc2)n1O` has a documented TGI of > 100 µM

----------
TGI reference
System: SF-295 CNS
Assay: NCI tumour cell line growth inhibition, 48 h

TGI reported for this compound `O=c1[nH]c2ccc(CC(=S)N3CCN(c4ccccc4)CC3)cc2s1` : > 100 µM

Reported TGI ( `C[n+]1c2ccccc2c(NC2CCNCC2)c2[nH]c3ccccc3c21` ) = 8.32 µM

TGI in this record for `Cc1cccc(Nc2cn(CCOc3ccccc3)c(=O)[nH]c2=O)c1` : > 100 µM

// TGI value for Cc1c2cc[n+](C)cc2c(COC2OC(CO)C(O)C2O)c2c3ccccc3n(C)c12 (configuration not stated) : > 100 µM

C[C@H](NC(=O)OC1C2C=CC(O)C1CC2)c1ccccc1 (some centres not stated) yielded TGI of > 100 µM

Looking up `c1ccc(COc2nc3ccc(C45CC6CC(CC(C6)C4)C5)cc3[nH]2)cc1` , I see its TGI listed as > 100 µM

// `COc1ccccc1Nc1nc(-c2cc3cccc(C(F)(F)F)c3oc2=O)cs1` : TGI value = 24.2 µM

----------
Test system: IGROV1 ovarian
Assay: NCI tumour cell line growth inhibition, 48 h
quantityMeasured: TGI (µM)
The reply should contain only the number, in µM.

Take a look at these entries with their results.
compound | TGI, µM
COc1cc(O)c(C(=O)/C=C/c2ccc(O)cc2)cc1Oc1ccc(C(=O)/C=C/c2ccc(O)cc2)c(O)c1 | 3.9
CCCCN(CCCC)CC(=O)c1ccc2cc(Cl)c3ccccc3c2c1 | 62
CC(C)(C)CC(C)(C)Cc1ccc(OCCOCC[N+](C)(C)Cc2ccccc2)cc1 | 2.86
CN(C)/[N+]([O-])=N/Oc1cc(Nc2ccc(C(=O)O)cc2)c([N+](=O)[O-])cc1[N+](=O)[O-] | 34.4
COc1ccc(N(C(=O)OC(C)(C)C)[C@@H]2C(C)=C[C@H]([S@@](=O)c3ccc(C)cc3)[C@@H]3C(=O)N(C)C(=O)[C@@H]32)cc1 | 23.1

Per the reported IGROV1 ovarian data, C=C(C)C1CC2=C(C(=O)OC)C=C(O2)C(C(=C)C)[C@@H]2OC(=O)/C(=C\C1O)[C@H]2N(C)C (some centres undefined) has TGI of 20.9
